# target or test system: recombinant human 17β-hydroxysteroid dehydrogenase type 1 (Homo sapiens, UniProt P14061)
# Construct: made in house; host or cells: Sf9 insect cells (baculovirus, Bac to Bac Expression System)
# Sequence (P14061 whole entry): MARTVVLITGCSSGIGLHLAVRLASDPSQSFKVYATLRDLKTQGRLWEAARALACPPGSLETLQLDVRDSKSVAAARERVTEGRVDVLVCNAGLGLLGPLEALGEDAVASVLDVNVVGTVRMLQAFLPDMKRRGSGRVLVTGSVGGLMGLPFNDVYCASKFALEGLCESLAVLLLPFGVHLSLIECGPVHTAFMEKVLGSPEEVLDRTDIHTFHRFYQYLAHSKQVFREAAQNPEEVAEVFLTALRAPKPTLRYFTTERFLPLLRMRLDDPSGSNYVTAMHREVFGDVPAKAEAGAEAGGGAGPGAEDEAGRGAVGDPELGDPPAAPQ
# assay info: Inhibition of recombinant human 17β-hydroxysteroid dehydrogenase type 1 (conversion of 3H-estrone to estradiol, HPLC)
# Type: biochemical
# measurement context: inhibitor 100 nM; 30 nM 3H-estrone, 1 mM NADPH, 30 min at RT; read-out: Inhibition of rec. 17β-HSD1 (% inhibition), 100 nM
Here, each record is paired with measured inhibition at 0.1 µM data.

>  <chemical string>
CN(C[C@H]1CC(=O)[C@@]2(C)CC[C@@H]3c4ccc(O)cc4CC[C@H]3[C@H]12)S(=O)(=O)c1cc(S(=O)(=O)c2ccccc2)cs1

>  <inhibition at 0.1 µM, %>
35.7

$$$$
>  <chemical string>
C[C@]12CC[C@@H]3c4ccc(O)cc4CC[C@H]3[C@@H]1[C@H](CCCC(=O)N1CCOCC1)CC2=O

>  <inhibition at 0.1 µM, %>
49.9

$$$$
>  <chemical string>
C[C@]12CC[C@@H]3c4ccc(O)cc4CC[C@H]3[C@@H]1[C@@H](CCCC(=O)NCc1ccccc1)CC2=O

>  <inhibition at 0.1 µM, %>
41.8

$$$$
>  <chemical string>
COc1ccc(NC(=O)NCCC[C@@H]2CC(=O)[C@@]3(C)CC[C@@H]4c5ccc(OC)cc5CC[C@H]4[C@H]23)cc1

>  <inhibition at 0.1 µM, %>
72.4

$$$$
>  <chemical string>
COc1ccc2c(c1)CC[C@H]1[C@@H]3[C@H](CCC(=O)NCCc4ccc(O)cc4)CC(=O)[C@@]3(C)CC[C@H]21

>  <inhibition at 0.1 µM, %>
57.9

$$$$
>  <chemical string>
CN(C[C@H]1CC(=O)[C@@]2(C)CC[C@@H]3c4ccc(O)cc4CC[C@H]3[C@H]12)S(=O)(=O)c1ccc2ccccc2c1

>  <inhibition at 0.1 µM, %>
39.7

$$$$

====

# target or test system: recombinant human 17β-hydroxysteroid dehydrogenase type 1 (Homo sapiens)
# Construct: made in house; host or cells: Sf9 insect cells (baculovirus, Bac to Bac Expression System)
# assay info: Inhibition of recombinant human 17β-hydroxysteroid dehydrogenase type 1 (conversion of 3H-estrone to estradiol, HPLC)
# Type: biochemical
# measurement context: inhibitor 1 μm; 30 nM 3H-estrone, 1 mM NADPH, 30 min at RT; read-out: Inhibition of rec. 17β-HSD1 (% inhibition), 1 μm
Quick reference: inhibition at 1 µM of the listed items.
property measured: inhibition at 1 µM (%)

>  <compound>
COc1ccc2c(c1)CC[C@H]1[C@@H]3[C@H](CCC(=O)N(C)C4CCCCC4)CC(=O)[C@@]3(C)CC[C@H]21

>  <property measured>
inhibition at 1 µM

>  <unit descriptor>
%

>  <measured number>
93

$$$$
>  <compound>
COc1ccc2c(c1)CC[C@H]1[C@@H]3[C@H](CCCNC(=O)NC4CCCCC4)CC(=O)[C@@]3(C)CC[C@H]21

>  <property measured>
inhibition at 1 µM

>  <unit descriptor>
%

>  <measured number>
80.7

$$$$
>  <compound>
COc1ccc2c(c1)CC[C@H]1[C@@H]3[C@H](CCCNC(=O)NC(C)C)CC(=O)[C@@]3(C)CC[C@H]21

>  <property measured>
inhibition at 1 µM

>  <unit descriptor>
%

>  <measured number>
82.7

$$$$
>  <compound>
CNC(=O)CCC[C@@H]1CC(=O)[C@@]2(C)CC[C@@H]3c4ccc(OC)cc4CC[C@H]3[C@H]12

>  <property measured>
inhibition at 1 µM

>  <unit descriptor>
%

>  <measured number>
60.8

$$$$
>  <compound>
CN(Cc1ccccc1)C(=O)CCC[C@@H]1CC(=O)[C@@]2(C)CC[C@@H]3c4ccc(O)cc4CC[C@H]3[C@H]12

>  <property measured>
inhibition at 1 µM

>  <unit descriptor>
%

>  <measured number>
89.5

$$$$
>  <compound>
COc1ccc2c(c1)CC[C@H]1[C@@H]3[C@H](CCC(=O)NCc4cccc(F)c4)CC(=O)[C@@]3(C)CC[C@H]21

>  <property measured>
inhibition at 1 µM

>  <unit descriptor>
%

>  <measured number>
66.3

$$$$
>  <compound>
C[C@]12CC[C@@H]3c4ccc(O)cc4CC[C@H]3[C@@H]1[C@@H](CCCC(=O)N1CCOCC1)CC2=O

>  <property measured>
inhibition at 1 µM

>  <unit descriptor>
%

>  <measured number>
79.4

$$$$
>  <compound>
COc1ccc2c(c1)CCC1C2CC[C@]2(C)C(=O)C[C@@H](CCCC(=O)NCCc3c[nH]c4c(C)cccc34)C12 (stereo partly drawn)

>  <property measured>
inhibition at 1 µM

>  <unit descriptor>
%

>  <measured number>
77.9

$$$$
>  <compound>
COc1ccc2c(c1)CC[C@H]1[C@@H]3[C@H](CCCCC(=O)NCc4ccccc4)CC(=O)[C@@]3(C)CC[C@H]21

>  <property measured>
inhibition at 1 µM

>  <unit descriptor>
%

>  <measured number>
91.9

$$$$
>  <compound>
COc1ccc2c(c1)CC[C@H]1[C@@H]3[C@H](CCCCCC(=O)NCc4ccc(Cl)cc4)CC(=O)[C@@]3(C)CC[C@H]21

>  <property measured>
inhibition at 1 µM

>  <unit descriptor>
%

>  <measured number>
75.1

$$$$
>  <compound>
COc1ccc2c(c1)CC[C@H]1[C@@H]3[C@H](CCCOC(=O)Nc4ccc(Cl)cc4Cl)CC(=O)[C@@]3(C)CC[C@H]21

>  <property measured>
inhibition at 1 µM

>  <unit descriptor>
%

>  <measured number>
53.9

$$$$
>  <compound>
CN(C[C@H]1CC(=O)[C@@]2(C)CC[C@@H]3c4ccc(O)cc4CC[C@H]3[C@H]12)S(=O)(=O)c1ccccc1

>  <property measured>
inhibition at 1 µM

>  <unit descriptor>
%

>  <measured number>
86.9

$$$$
>  <compound>
CCOC(=O)Cc1csc(NC(=O)CC[C@@H]2CC(=O)[C@@]3(C)CC[C@@H]4c5ccc(OC)cc5CC[C@H]4[C@H]23)n1

>  <property measured>
inhibition at 1 µM

>  <unit descriptor>
%

>  <measured number>
62.1

$$$$
>  <compound>
COc1ccc(S(=O)(=O)NC[C@H]2CC(=O)[C@@]3(C)CC[C@@H]4c5ccc(O)cc5CC[C@H]4[C@H]23)cc1

>  <property measured>
inhibition at 1 µM

>  <unit descriptor>
%

>  <measured number>
88.3

$$$$
>  <compound>
COc1ccc2c(c1)CCC1C2CC[C@]2(C)C(=O)C[C@H](C(=O)Nc3ncc(C)s3)C12 (stereo partly drawn)

>  <property measured>
inhibition at 1 µM

>  <unit descriptor>
%

>  <measured number>
81

$$$$
>  <compound>
C[C@]12CC[C@@H]3c4ccc(O)cc4CC[C@H]3[C@@H]1[C@@H](CNS(=O)(=O)c1ccc([N+](=O)[O-])cc1)CC2=O

>  <property measured>
inhibition at 1 µM

>  <unit descriptor>
%

>  <measured number>
72.3

$$$$
>  <compound>
COc1ccc2c(c1)CC[C@H]1[C@@H]3[C@H](CCCCNC(=O)NCc4ccccc4)CC(=O)[C@@]3(C)CC[C@H]21

>  <property measured>
inhibition at 1 µM

>  <unit descriptor>
%

>  <measured number>
79.5

$$$$
>  <compound>
COc1ccc2c(c1)CC[C@H]1[C@@H]3[C@H](CCCCC(=O)NCCc4c[nH]c5c(C)cccc45)CC(=O)[C@@]3(C)CC[C@H]21

>  <property measured>
inhibition at 1 µM

>  <unit descriptor>
%

>  <measured number>
77.2

$$$$
>  <compound>
C[C@]12CC[C@@H]3c4ccc(O)cc4CC[C@H]3[C@@H]1[C@H](CCCC(=O)N1CCOCC1)CC2=O

>  <property measured>
inhibition at 1 µM

>  <unit descriptor>
%

>  <measured number>
80.2

$$$$
>  <compound>
COc1ccc2c(c1)CC[C@H]1[C@@H]3[C@H](CCCCCC(=O)NCc4ccco4)CC(=O)[C@@]3(C)CC[C@H]21

>  <property measured>
inhibition at 1 µM

>  <unit descriptor>
%

>  <measured number>
80.7

$$$$
>  <compound>
C[C@]12CC[C@@H]3c4ccc(O)cc4CC[C@H]3[C@@H]1[C@@H](CCCCNC(=O)NCC1CCCCC1)CC2=O

>  <property measured>
inhibition at 1 µM

>  <unit descriptor>
%

>  <measured number>
83

$$$$
>  <compound>
COc1ccc2c(c1)CC[C@H]1[C@@H]3[C@H](CCC(=O)NC4CCCCC4)CC(=O)[C@@]3(C)CC[C@H]21

>  <property measured>
inhibition at 1 µM

>  <unit descriptor>
%

>  <measured number>
91.7

$$$$
>  <compound>
COc1ccc2c(c1)CC[C@H]1[C@@H]3[C@H](CCCOC(=O)Nc4ccc(Cl)c(Cl)c4)CC(=O)[C@@]3(C)CC[C@H]21

>  <property measured>
inhibition at 1 µM

>  <unit descriptor>
%

>  <measured number>
57.3

$$$$
>  <compound>
COc1ccc(NC(=O)NCCCC[C@@H]2CC(=O)[C@@]3(C)CC[C@@H]4c5ccc(OC)cc5CC[C@H]4[C@H]23)cc1

>  <property measured>
inhibition at 1 µM

>  <unit descriptor>
%

>  <measured number>
77

$$$$
